Where these numbers come from: PubChem BioAssay AID1963865

Test system: KRAS PDC multicell spheroid viability;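 note: spheroids exposed to compounds for 7 days; 100% = DMSO vehicle control viability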
Assay: Anticancer human tumor 825966-067-R-J1-PDC patient-derived colon carcinoma cell line growth inhibition [KRAS2]
Settings: second compound 0.1 µM; first compound 0.316 µM; stronger effect = lower value
PROPERTY: viability, T/C (%)

COMPOUND	ASSAY SYSTEM	ENDPOINT VALUE
CCN1CCN(Cc2ccc(Nc3ncc(F)c(-c4cc(F)c5nc(C)n(C(C)C)c5c4)n3)nc2)CC1 + C=CC(=O)N1CCN(c2nc(=O)n(-c3c(C)ccnc3C(C)C)c3nc(-c4c(O)cccc4F)c(F)cc23)C(C)C1	KRAS PDC multicell spheroid viability	143
CC(C)NCC(C(=O)N1CCN(c2ncnc3c2C(C)CC3O)CC1)c1ccc(Cl)cc1 (stereo unspecified) + CC1OCC2(CCN(c3cnc(Sc4ccnc(N)c4Cl)c(N)n3)CC2)C1N	KRAS PDC multicell spheroid viability	129
CCNC(=O)CC1N=C(c2ccc(Cl)cc2)c2cc(OC)ccc2-n2c(C)nnc21 (stereo unspecified) + COc1cc2nc(C)nc(NC(C)c3cc(N)cc(C(F)(F)F)c3)c2cc1OC1CCOC1	KRAS PDC multicell spheroid viability	104
O=C(c1cc(Cc2n[nH]c(=O)c3ccccc23)ccc1F)N1CCN(C(=O)C2CC2)CC1 + COc1cc2nc(C)nc(NC(C)c3cc(N)cc(C(F)(F)F)c3)c2cc1OC1CCOC1	KRAS PDC multicell spheroid viability	92.3
COc1cc2nccc(Oc3ccc(NC(=O)C4(C(=O)Nc5ccc(F)cc5)CC4)cc3)c2cc1OC + C=CC(=O)N1CCN(c2nc(OCC3CCCN3C)nc3c2CCN(c2cccc4cccc(C)c24)C3)CC1CC#N	KRAS PDC multicell spheroid viability	74.1
O=C(c1cc(Cc2n[nH]c(=O)c3ccccc23)ccc1F)N1CCN(C(=O)C2CC2)CC1 + C=CC(=O)N1CCN(c2nc(=O)n(-c3c(C)ccnc3C(C)C)c3nc(-c4c(O)cccc4F)c(F)cc23)C(C)C1	KRAS PDC multicell spheroid viability	107
COc1cc2nccc(Oc3ccc(NC(=O)C4(C(=O)Nc5ccc(F)cc5)CC4)cc3)c2cc1OC + COc1cc2nc(C)nc(NC(C)c3cc(N)cc(C(F)(F)F)c3)c2cc1OC1CCOC1	KRAS PDC multicell spheroid viability	83.9
Cn1nccc1Nc1nccc(-c2cc3c(s2)C(C)(C)N(CCN2CCOCC2)C3=O)n1 + C=CC(=O)N1CCN(c2nc(OCC3CCCN3C)nc3c2CCN(c2cccc4cccc(C)c24)C3)CC1CC#N	KRAS PDC multicell spheroid viability	106
Cn1nccc1Nc1nccc(-c2cc3c(s2)C(C)(C)N(CCN2CCOCC2)C3=O)n1 + COc1cc2nc(C)nc(NC(C)c3cc(N)cc(C(F)(F)F)c3)c2cc1OC1CCOC1	KRAS PDC multicell spheroid viability	146
CC(C)NCC(C(=O)N1CCN(c2ncnc3c2C(C)CC3O)CC1)c1ccc(Cl)cc1 (stereo unspecified) + COc1cc2nc(C)nc(NC(C)c3cc(N)cc(C(F)(F)F)c3)c2cc1OC1CCOC1	KRAS PDC multicell spheroid viability	148
COc1cc(Nc2ncc3c(n2)-c2ccc(Cl)cc2C(c2c(F)cccc2OC)=NC3)ccc1C(=O)O + C=CC(=O)N1CCN(c2nc(=O)n(-c3c(C)ccnc3C(C)C)c3nc(-c4c(O)cccc4F)c(F)cc23)C(C)C1	KRAS PDC multicell spheroid viability	141
